B1: Azoarcus group I ribozyme (parent)
chain: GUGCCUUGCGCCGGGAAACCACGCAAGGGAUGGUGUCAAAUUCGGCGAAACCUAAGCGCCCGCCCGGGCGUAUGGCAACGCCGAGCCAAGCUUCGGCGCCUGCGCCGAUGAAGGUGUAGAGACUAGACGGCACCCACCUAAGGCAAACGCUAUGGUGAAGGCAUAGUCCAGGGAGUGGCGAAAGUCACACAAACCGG

Variants of: B1
Assay Text: reverse-splicing fitness (ratio to wild type); higher = more active; in vitro selection; Mg2+ level not given
Can you tell me reverse-splicing fitness for the items I'm about to list?
Respond numerically, and do not add a unit to the figure.

Noted for C82G A111G A120C C150G C169U U176C : its reverse-splicing fitness reads 0.0135

Consider C82U A145U C150G C169G U176A . Its measured reverse-splicing fitness is 0.00745

Documented reverse-splicing fitness of C82A A111U A145G C169G U176C : 0.0304

For reference, reported reverse-splicing fitness for C82U A120G A145U C150G U176G stands at 0.00275

reverse-splicing fitness for C82A A120C A145C C150G C169G U176G is 0.00575

Data point: A111U A120U A145G C150A C169A ; reverse-splicing fitness = 0.00554

For this variant ( C82U A120C A145C C169A U176G ), measured reverse-splicing fitness is 0.00299

Entry under test: C82A A120G A145G C169U U176A . Its reverse-splicing fitness was 0.022

get_value(item= C82G A111C A120C A145U U176A , readout=reverse-splicing fitness) returns 0.0196

Consider C82U A111C A120U A145U C150A C169G . Its measured reverse-splicing fitness is 0.00265

Input C82G A111C A145C C150G C169A . Output reverse-splicing fitness: 0.00941

// recorded reverse-splicing fitness for C82G A111C A120C A145U C150G C169A U176C : 0.0108

Short answer for C82G A111U A120U C150U C169A U176G : reverse-splicing fitness was 0.00241

Entry C82G A111G A120U A145U C150U C169A U176A — recorded reverse-splicing fitness = 0.00294

Entry under test: C82A A111U C150A U176C . Its reverse-splicing fitness was 0.0292

Lab note: C82G A111C A120C A145U C169A U176G gave reverse-splicing fitness of 0.0056

Form: variant = A120G A145C C150U C169A U176G ; reverse-splicing fitness = 0.00586

C82A A111C A120C A145G C150G C169G U176C has a reported reverse-splicing fitness of 0.0131

C82A A111U A145U C150U C169A U176A has a reported reverse-splicing fitness of 0.0148

# variant C82A A145C C150A C169G U176G ; its reverse-splicing fitness = 0.00671

Lab book: reverse-splicing fitness of C82G A111U A120U A145C C150U C169A noted as 0.00282

Record summary for C82G A111U A120C A145C C150G C169G U176G : reported reverse-splicing fitness = 0.00606

reverse-splicing fitness reported for this variant C82A A111U A120C C150A U176A : 0.0129

The value of reverse-splicing fitness measured for the variant A120C C150U U176G turned out to be 0.181

# variant C82G A111U A120U A145G C169G U176A ; its reverse-splicing fitness = 0.00533

// sample C82A A111U A120G A145C C150A U176A , its reverse-splicing fitness was 0.00932

The variant identified as C82U A111U A120G A145U C150G C169U U176C registered its reverse-splicing fitness at 0.0111

The recorded reverse-splicing fitness for entry C82U A111G A145C C150U C169U equals 0.00947

# reverse-splicing fitness of A111G A145G C150U C169G = 0.101

Record C82G A111G A120C A145U C150G , field reverse-splicing fitness: 0.0127

Consider C82U A111C A120U A145G C169U U176A . Its measured reverse-splicing fitness is 0.00527

Recorded reverse-splicing fitness (variant C82U A120G A145U C169G ): 0.0232

The variant listed as A111U A120U A145C C150U C169G U176A has a reported reverse-splicing fitness of 0.0032

For record A111C A120G A145C C169U U176A the listed reverse-splicing fitness is 0.0395

Entry C82G A111G A120U C150A U176C — recorded reverse-splicing fitness = 0.00806

Please fill in: reverse-splicing fitness reported for A120U A145G C150A U176G = 0.063

Lab book: reverse-splicing fitness of C82U A120U A145U C150G C169G U176A noted as 0.00198

Query C82A A111C A120C C150G U176C yields reverse-splicing fitness of 0.00863

Measured reverse-splicing fitness, C82G A111U A120C A145U C150U U176C : 0.0247

// field: reverse-splicing fitness; key: C82U A111U A120U A145U C150A C169G U176G ; value = 0.00192

response.value for A111C A145U C150U C169U U176A (field: reverse-splicing fitness) = 0.0264

The variant C82U A111G C150U C169G U176A showed reverse-splicing fitness equal to 0.0191

In plain terms, C82A A111C A120G A145U C150A U176G has a documented reverse-splicing fitness of 0.00589

Input C82A A120C C150A C169A U176C . Output reverse-splicing fitness: 0.0227

Measured reverse-splicing fitness of C82U A111U A145U C150G U176G : 0.00449

Looking up C82U A145C C169G U176A , I see its reverse-splicing fitness listed as 0.0179

In plain terms, A111U A120G A145G C169U has a documented reverse-splicing fitness of 0.158

What the record says about C82G A111C A120C A145C C150A C169U U176G : reverse-splicing fitness is 0.00799

Form: variant = C82U A111G A120G A145U C150G C169A ; reverse-splicing fitness = 0.00861

Consider C82G A111G A120C A145C C150G . Its measured reverse-splicing fitness is 0.0108

The variant listed as C82A A120C C169A U176A has a reported reverse-splicing fitness of 0.0198

Reported reverse-splicing fitness ( C82A A111G A120G A145U C150A U176A ) = 0.0117

// reverse-splicing fitness value for A111G A120C C169G U176G : 0.00351

Form: variant = A111U A145G C150G C169G ; reverse-splicing fitness = 0.011

Field reverse-splicing fitness (entry A111C A120U A145U C150G C169U U176C ) reads 0.00398

Per the record, C82G A111G A120C A145G C169G U176C has reverse-splicing fitness of 0.0188

// field: reverse-splicing fitness; key: C82A A111U A120G C150U C169A U176C ; value = 0.0163

# reverse-splicing fitness (variant: A111G A120C A145U C150G C169G U176A ) is 0.00655

Reported reverse-splicing fitness of A111G A145C C150G C169G : 0.018

For reference, reported reverse-splicing fitness for C82G A120U A145G C150U C169U U176G stands at 0.00216

reverse-splicing fitness for C82A A111C A120G C150G U176G is 0.00292

Looking up C82G A111U A120G A145C C150G C169U U176C , I see its reverse-splicing fitness listed as 0.0123

Lookup result for C82G A111C A120C A145U C150A C169U U176A ; measured reverse-splicing fitness: 0.0126

A120G A145G C150U U176A has a reported reverse-splicing fitness of 0.151

So for A111U C169A , the logged reverse-splicing fitness turned out to be 0.0292

Notebook: A111U A120G A145G C169A U176G , reverse-splicing fitness read as 0.00472

The value of reverse-splicing fitness measured for the variant C82U A111C A120U A145U C150U U176G turned out to be 0.0027

For A111G A145G C169G U176C the variant record lists reverse-splicing fitness as 0.0596

Per the records, this variant ( C82G A145U C169U ) has reverse-splicing fitness equal to 0.0147

Just so you know, measured reverse-splicing fitness for C82A A111C A120U A145U C169G U176A came out at 0.00336

Summary for this variant, C82A A120U A145G C169U U176C : reverse-splicing fitness is 0.00364

Just so you know, measured reverse-splicing fitness for C82G A111C A120G A145C C169U U176A came out at 0.0164

Field reverse-splicing fitness (entry A120C A145C C150G C169U U176C ) reads 0.0503

Query C82A A120C C150A C169U U176A yields reverse-splicing fitness of 0.0176

Looking up C82A A120U A145U C150A U176C , I see its reverse-splicing fitness listed as 0.0092

Record summary for C150G C169U U176C : reported reverse-splicing fitness = 0.0326

Documented reverse-splicing fitness of C82G A111G A120G A145G C150G C169A U176C : 0.0138

The variant listed as C82U A111G A120G U176G shows reverse-splicing fitness equal to 0.00466

So for C82A A111U A120C A145G C150U C169A U176G , the logged reverse-splicing fitness turned out to be 0.00943

reverse-splicing fitness recorded for this variant, C82G A111C A120C A145U C150A C169G U176G , is 0.00775

Consider C82U A111C A145C C150U C169A U176C . Its measured reverse-splicing fitness is 0.01

Entry A111G A120G A145G C169G U176G — recorded reverse-splicing fitness = 0.00622

Noted for C82G A111U A120U A145G C150G C169A U176C : its reverse-splicing fitness reads 0.0086
